Here the recorded z-score is given for each entry.
# Test Name: adipocyte viability effects, profiling panel, cell-based, 3T3-L1 adipocytes, calcein-AM fluorescence, 48 h, basal (AID 1163); note: test concentration not given here
# Study Conditions: 3T3-L1 adipocytes viability, higher = more signal

Reference set (2 entries):
[[record]]
entry_smiles = "CC[C@@H]1C=C(C(=O)O)[C@H](c2cccc(Cl)c2)N1S(=O)(=O)c1ccc(C)cc1"
reported = -0.762

[[record]]
entry_smiles = "Cc1ccc(S[C@]2(C(=O)NC(C)C)CC(=O)N(Cc3ccccc3)[C@@H]2c2ccc(CO)cc2I)cc1"
reported = 0.547


Please turn your attention to the following entry.
Note to self: z-score recorded for `CC[C@@H](O[Si](C#C[Si](C(C)C)(C(C)C)C(C)C)(C(C)C)C(C)C)c1cn(Cc2cccc(Cl)c2)nn1` was -1.25
